// provenance: patent US20040024024A1

target: Human recombinant MMP-13 (Homo sapiens, UniProt P45452); construct: made in house; host or cells: baculovirus / insect cells; assay: In vitro MMP inhibition, Ki determination (fluorogenic substrate II); assay type: biochemical; conditions: value in parentheses
recordedMetric: Ki
Answer format reminder: number followed by unit.

These solved cases illustrate the format of a correct answer.
O=C(NO)C1(S(=O)(=O)c2ccc(OCCCc3cccc(-c4ccc(F)cc4F)c3)cc2)CCOCC1 [Example 630] = 6.02 nM
O=C(NO)C1(S(=O)(=O)c2ccc(OCCCc3ccc(F)c(-c4ccccc4)c3)cc2)CCOCC1 [Example 504] = 4.65 nM

Next molecule, please.
Input: I would be grateful if you could share the reported Ki for O=C(NO)C1(S(=O)(=O)c2ccc(OCCc3cccnc3)cc2)CCOCC1 [Example 557] .
Output: 3.68 nM

* * *

Measured log10 of IC50 by item
Molecular target: Human recombinant MMP-2 (Homo sapiens)
Construct: made in house; host or cells: MMP-2-transfected p2AHT2 cells
Sequence (P08253 110-660): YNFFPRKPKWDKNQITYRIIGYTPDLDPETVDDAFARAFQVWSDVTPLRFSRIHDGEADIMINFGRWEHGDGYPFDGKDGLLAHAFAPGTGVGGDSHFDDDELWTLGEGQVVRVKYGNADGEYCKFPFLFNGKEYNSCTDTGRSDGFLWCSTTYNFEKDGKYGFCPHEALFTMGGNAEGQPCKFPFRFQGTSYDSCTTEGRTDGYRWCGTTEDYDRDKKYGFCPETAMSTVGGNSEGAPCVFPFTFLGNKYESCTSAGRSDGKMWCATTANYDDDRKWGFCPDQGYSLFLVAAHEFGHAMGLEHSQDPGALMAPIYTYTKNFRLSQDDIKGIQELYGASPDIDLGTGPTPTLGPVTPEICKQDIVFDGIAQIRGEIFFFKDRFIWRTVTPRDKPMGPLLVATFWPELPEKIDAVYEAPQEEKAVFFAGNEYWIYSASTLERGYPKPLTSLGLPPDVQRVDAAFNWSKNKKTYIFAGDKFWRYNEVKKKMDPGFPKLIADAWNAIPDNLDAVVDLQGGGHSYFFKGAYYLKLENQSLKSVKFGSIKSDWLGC
Test: In vitro MMP inhibition, IC50 determination (fluorogenic substrate I)
Type: biochemical
Conditions: value outside parenthesis
Protocol: Several hydroxamates and salts thereof were analyzed in in vitro assays to determine their ability to inhibit the MMP cleavage of peptide substrates. Inhibition (Ki) and IC50 constants were calculated from the assayed hydroxamate-MMP interactions. […] The assays from which the IC50 determinations were made were performed as follows. […] The assayed hydroxamate samples were, incubated in Microfluorrm White Plates (Dynatech, Chantilly, VA) and analyzed on a Perkin Elmer L550 plate reader (Norwalk, Conn.). […]
Short version: log10 scale, IC50, nM.

COCCN1CCC(C(=O)NO)(S(=O)(=O)c2ccc(OCCCc3nc(-c4ccc(OC(F)(F)F)cc4)no3)cc2)CC1 = 2.22
CC(C)c1ccc(C(=O)NNC(=O)CCCOc2ccc(S(=O)(=O)C3(C(=O)NO)CCOCC3)cc2)cc1 = 0.88
CN(CCCOc1ccc(S(=O)(=O)C2(C(=O)NO)CCOCC2)cc1)C(=O)c1ccc2ccccc2c1 = 3.43
COc1ccc(/C(C#N)=C/CCCOc2ccc(S(=O)(=O)C3(C(=O)NO)CCN(C4CC4)CC3)cc2)cc1 = 1.41
COc1ccc(C(=O)N(C)CCCOc2ccc(S(=O)(=O)C3(C(=O)NO)CCOCC3)cc2)cc1 = 3.68

Input: I would be grateful if you could share the reported log10 of IC50 for COCCN1CCC(C(=O)NO)(S(=O)(=O)c2ccc(OCCCn3ccc(-c4ccc(OC)cc4)n3)cc2)CC1 .
Output: 1.84

Input: I would be grateful if you could share the reported log10 of IC50 for CC[C@@H]1C(=O)N(CCCOc2ccc(S(=O)(=O)C3(C(=O)NO)CCOCC3)cc2)C(=O)N1c1ccccc1 .
Output: 3.02

* * *

Measured IC50 by item
target: Human recombinant MMP-9 (Homo sapiens, UniProt P14780); construct: made in house; host or cells: MMP-9-transfected HT1080 cells (spent media); assay: In vitro MMP inhibition, IC50 determination (fluorogenic substrate I); type: biochemical; details: value outside parentheses (Ki in parenthesis)
Sequence (P14780 107-707 limits assumed): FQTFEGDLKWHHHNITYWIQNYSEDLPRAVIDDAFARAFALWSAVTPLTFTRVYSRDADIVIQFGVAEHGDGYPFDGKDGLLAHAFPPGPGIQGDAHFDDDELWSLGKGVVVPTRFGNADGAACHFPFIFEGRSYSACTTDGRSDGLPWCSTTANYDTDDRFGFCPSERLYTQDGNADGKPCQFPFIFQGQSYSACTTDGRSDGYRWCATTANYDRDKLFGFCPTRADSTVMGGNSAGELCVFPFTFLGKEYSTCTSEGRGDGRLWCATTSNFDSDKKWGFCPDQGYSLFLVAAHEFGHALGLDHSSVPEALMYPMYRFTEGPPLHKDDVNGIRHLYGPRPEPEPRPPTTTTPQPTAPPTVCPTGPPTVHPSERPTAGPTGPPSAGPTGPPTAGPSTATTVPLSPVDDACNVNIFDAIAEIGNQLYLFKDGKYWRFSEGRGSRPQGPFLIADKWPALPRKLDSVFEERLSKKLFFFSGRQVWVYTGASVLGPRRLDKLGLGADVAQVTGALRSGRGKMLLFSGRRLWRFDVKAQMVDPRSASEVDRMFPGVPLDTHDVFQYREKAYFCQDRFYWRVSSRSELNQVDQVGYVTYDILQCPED
Return type: number; implicit unit nM.

These solved cases illustrate the format of a correct answer.
O=C(NCCCOc1ccc(S(=O)(=O)C2(C(=O)NO)CCOCC2)cc1)c1cnc(Cl)c(Cl)c1 [Example 384] = 2630
COc1ccc(C(=O)CCCCOc2ccc(S(=O)(=O)C3(C(=O)NO)CCOCC3)cc2)c(OC)c1 [Example 351] = 2220
CC(C)(COc1ccc(S(=O)(=O)C2(C(=O)NO)CCOCC2)cc1)CS(=O)(=O)Cc1cccc(OC(F)(F)F)c1 [Example 440] = 140

Next compound, please.
Input: I would be grateful if you could share the reported IC50 for CC(C)(C)c1ccc(C(=O)CCCOc2ccc(S(=O)(=O)C3(C(=O)NO)CCOCC3)cc2)cc1 [Example 355] .
Output: 1070
